Target: hCdc5 DNA-binding domain (aa 1-500) (Homo sapiens, UniProt Q99459 SEQ:1-500)
Sequence (Q99459 1-500): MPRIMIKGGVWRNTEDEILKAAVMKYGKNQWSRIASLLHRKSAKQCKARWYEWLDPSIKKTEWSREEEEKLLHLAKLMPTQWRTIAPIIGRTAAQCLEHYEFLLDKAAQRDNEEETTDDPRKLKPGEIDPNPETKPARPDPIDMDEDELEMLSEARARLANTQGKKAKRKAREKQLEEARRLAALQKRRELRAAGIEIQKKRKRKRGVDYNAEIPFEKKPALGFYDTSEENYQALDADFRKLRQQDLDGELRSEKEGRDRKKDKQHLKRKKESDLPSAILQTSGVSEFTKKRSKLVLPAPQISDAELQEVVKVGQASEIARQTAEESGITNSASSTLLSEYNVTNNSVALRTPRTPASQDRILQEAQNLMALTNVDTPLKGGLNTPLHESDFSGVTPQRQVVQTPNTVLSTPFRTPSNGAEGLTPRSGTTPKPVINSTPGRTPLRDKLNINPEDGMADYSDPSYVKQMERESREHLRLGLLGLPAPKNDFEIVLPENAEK
Assay: EMSA; 1 nM DNA, 2.5-40 nM protein; 10 mM HEPES pH 7.8, 75 mM KCl, 2.5 mM MgCl2, poly(dI-dC), room temperature
Conditions: tags: His6 fusion (pET29c(+), E. coli BL21(DE3), Ni-NTA); chain copies: forms homodimers by glutaraldehyde cross-linking in vitro; label: 32P
pKd: −log10 of the molar value.
Measure: pKd

// pKd value for hCdc5 consensus site (dsDNA) DNA 1: GATTTAACATAA DNA 2: TTATGTTAAATC : ~8.00

Data credit: patent US20020127702
